Just for reference, patent US4562205A is where these values come from.

procedure.summary: in vivo
condition.details: mouse, in vivo, po
I'd be grateful if you could share measured MTD at 336 h for these entries.

CCCCC(=O)NCC(=O)O	≥ 3000 mg/kg

Now consider the entry below.
For reference, reported MTD at 336 h for "CCCCC(=O)NCC(=O)[O-].[Na+]" stands at ≥ 3000 mg/kg

----------
procedure.summary: in vivo
condition.details: mouse, in vivo, po, TI-B (MTD/ED50), therapeutical index, mice
measure: selectivity ratio

Sample "CCCCC(=O)NCC(=O)O" ; selectivity ratio observed: > 280

----------
procedure.summary: in vivo
condition.details: mouse, in vivo, po
measure: LD50 at 336 h

CCCCC(=O)NCC(=O)[O-].[Na+]	> 3000 mg/kg

Okay, now this compound:
response.value for "CCCCC(=O)NCC(=O)O" (field: LD50 at 336 h) = > 3000 mg/kg
